The reported measurements were obtained from ChEMBL document CHEMBL1201862.

Recorded measurements of GI50, one per entry
Test system: DLD-1
measurement.notes: NCI tumour cell line growth inhibition, 48 h
Calls of active or inactive are those of the source. No stated cut-off is given here; in the data, active = GI50 up to about 1.1 µM and inactive = higher.

| compound | target.or.test.system | result |
| --- | --- | --- |
| O=C(CCc1n[nH]c(=S)o1)Nc1ccccc1C(F)(F)F | DLD-1 | > 100 µM (inactive) |
| CC(C)c1ccc2c(c1)CCC1C(C)(C)[C@@H](O)CC[C@]21C (stereo not given in full) | DLD-1 | 36.6 µM (inactive) |

In: Output reported GI50 of the compound NC(Cc1ccccc1)C(=O)OCN1C(=O)C2C3C=CC(C2C1=O)C1C2C(=O)N(COC(=O)C(N)Cc4ccccc4)C(=O)C2C31 (stereo not given) on DLD-1.
Out: 26.6 µM (inactive)

In: Output reported GI50 of the compound Cc1nc(Nc2ccc([N+](=O)[O-])cc2)sc1C(=O)/C=C/c1ccc(N(C)C)cc1 on DLD-1.
Out: 60.5 µM (inactive)

In: Output reported GI50 of the compound CCOc1ccc(NC(=O)C(=O)NO)cc1 on DLD-1.
Out: > 100 µM (inactive)

In: Output reported GI50 of the compound CC(C)C1COC(c2cccc(C3=N[C@@H](C(C)C)CO3)n2)=N1 (stereo not given in full) on DLD-1.
Out: > 100 µM (inactive)

In: Output reported GI50 of the compound Cc1ccc(C2=C(c3ccccc3)C(=O)C(c3ccccc3)=C2c2ccc(C)cc2)cc1 on DLD-1.
Out: 41.2 µM (inactive)

In: Output reported GI50 of the compound CC(Oc1ccc(OCC2CCCCC2)cc1)C(=O)NCCO (stereo not given) on DLD-1.
Out: > 100 µM (inactive)

In: Output reported GI50 of the compound CC(C)=CCC/C(=C/CC/C(C)=C/CCc1ccoc1)C(=O)O on DLD-1.
Out: 84.5 µM (inactive)

In: Output reported GI50 of the compound Cc1c(C(Cc2ccccc2N(C)C(=O)/C=C\C(=O)O)c2c[nH]c3ccccc23)c2ccccc2n1C (stereo not given) on DLD-1.
Out: 18.2 µM (inactive)

###

Tested on: SNB-19
measurement.notes: NCI tumour cell line growth inhibition, 48 h
Activity calls are given as the source filed them. Rule as the data show it: active = GI50 up to about 1.1 µM and inactive = higher.
recorded.endpoint: GI50

Illustrative cases are given below, each with its answer.
| compound | target.or.test.system | GI50 |
| --- | --- | --- |
| COc1ccc(/C(Cl)=C(\C=O)c2ccc(OC)cc2)cc1 | SNB-19 | > 100 µM (inactive) |
| Cc1cc2ccccc2n2c1nc1ccc(O)cc12 | SNB-19 | > 10 µM (inactive) |
| Nc1cc(S(=O)(=O)O)cc2cc(S(=O)(=O)O)c(/N=N/c3ccc(-c4ccc(/N=N/c5c(S(=O)(=O)O)cc6cc(S(=O)(=O)O)cc(N)c6c5O)cc4)cc3)c(O)c12 | SNB-19 | > 100 µM (inactive) |
| NC(Cc1ccccc1)C(=O)OCN1C(=O)C2C3C=CC(C2C1=O)C1C2C(=O)N(COC(=O)C(N)Cc4ccccc4)C(=O)C2C31 (stereo not given) | SNB-19 | 43.1 µM (inactive) |

API: the following record is the query input.
In: Read the entry COC1C2C[C@@H](O)CCC2C(C(=O)OCCl)C[C@H]1O (stereo not given in full) and write its reported GI50.
Out: > 100 µM (inactive)

###

Test system: NCI/ADR-RES
measurement.notes: NCI tumour cell line growth inhibition, 48 h
Calls of active or inactive are those of the source. No stated cut-off is given here; in the data, active = GI50 up to about 1.1 µM and inactive = higher.
Recorded measurements of GI50, one per entry

Illustrative cases are given below, each with its answer.
| compound | GI50 |
| --- | --- |
| Cc1ccc2cccc3c2c1CC1(C3=O)S(=O)(=O)OCCOS1(=O)=O | > 100 µM (inactive) |
| Clc1ccc(C2=NNC(c3cccc(Cl)c3)C2)cc1 (stereo unspecified) | 26.5 µM (inactive) |
| N#C/C=c1/c2ccccc2n2nc3ccccc3c12 | 14.9 µM (inactive) |
| C1CSCCCSCCCSCCCSCCCSC1 | 14.9 µM (inactive) |
| O=C1C2C=CC1C1C(=O)OC(=O)C21 (stereo unspecified) | > 100 µM (inactive) |

In: Read the entry COc1cc2c(cc1O)NC(=S)[C@@H]1CCCN1C2=O and write its reported GI50.
Out: > 100 µM (inactive)

In: Read the entry CNS(=O)(=O)c1ccccc1C(=N)c1ccccc1 and write its reported GI50.
Out: > 100 µM (inactive)

In: Read the entry O=C(C/N=C(\CN(c1ccccc1)c1ccccc1)Oc1c(Cl)cc(Cl)cc1Cl)n1cnc2ccccc21 and write its reported GI50.
Out: 38.3 µM (inactive)

In: Read the entry COc1c2c(c(OC)c3c1c(=O)c1ccccc1n3C)OCO2 and write its reported GI50.
Out: 44.9 µM (inactive)

###

System: NCI-H226
measurement.notes: NCI tumour cell line growth inhibition, 48 h
Activity calls are given as the source filed them. No stated cut-off is given here; in the data, active = GI50 up to about 1.1 µM and inactive = higher.
Recorded measurements of GI50, one per entry

Illustrative cases are given below, each with its answer.
| compound | GI50 |
| --- | --- |
| O=C(O)c1ccccc1/C=N/N=C1NCCCCN1 | > 100 µM (inactive) |
| C=CCCCN1CCCC(C)C1=S (stereo unspecified) | > 100 µM (inactive) |

In: Read the entry Cc1c2cccc-2ccc2c3ccccc3n(C(=O)c3ccc(Cl)cc3)c12 and write its reported GI50.
Out: > 100 µM (inactive)

###

System: KM-20L2
measurement.notes: NCI tumour cell line growth inhibition, 48 h
Activity calls are given as the source filed them. No stated cut-off is given here; in the data, active = GI50 up to about 1.1 µM and inactive = higher.
Entry note: the call must match one of active, inactive

Example entries begin here.
| molecule | class.name |
| --- | --- |
| CC(=O)OC1CCCn2c1nc1c2C(=O)C(C)=C(N2CC2)C1=O (stereo unspecified) | active |
| CN(C)C(=O)C1CCC(=C2C(=O)OC(C)(C)OC2=O)N1C (stereo unspecified) | inactive |
| c1csc(C[N+]23CN4CN(CN(C4)C2)C3)c1 | inactive |
| Cc1c(Cl)cccc1NC(=O)C(=O)C1C(=O)NC(=O)NC1=O | inactive |
| COC(=O)c1ccc(/C=C2\N=C(C)OC2=O)cc1 | inactive |

Note: attention shifts to another entry.
In: Short answer needed: outcome of this test for COP1(=O)CC2C(Cl)(Cl)C2(C)C1 (stereo unspecified) ?
Out: inactive

###

Tested on: SK-MEL-28
measurement.notes: NCI tumour cell line growth inhibition, 48 h
Activity calls are given as the source filed them. No stated cut-off is given here; in the data, active = GI50 up to about 1.1 µM and inactive = higher.
Recorded measurements of GI50, one per entry

Illustrative cases are given below, each with its answer.
| molecule | GI50 |
| --- | --- |
| CC(=O)O[C@H]1C(=O)[C@@]2(C)[C@H]([C@H](OC(=O)c3ccccc3)[C@]3(O)C[C@H](OC(=O)[C@H](O)[C@@H](NC(=O)c4ccccc4)c4ccc5ccccc5c4)C(C)=C1C3(C)C)[C@]1(OC(C)=O)CO[C@@H]1C[C@@H]2O | 0.132 µM (active) |
| O=[N+]([O-])c1cccc2nc3ccccc3c(NCCCN3CCOCC3)c12 | 0.034 µM (active) |

API: the following record is the query input.
In: Read the entry CC(=O)Nc1cc(C(=O)Nc2cc(C(=O)Nc3cc(C(=O)Nc4cc(C(=O)Nc5cc(C(=O)NCCC(=O)NCCCN(C)C)n(C)c5)n(C)c4)n(C)c3)n(C)c2)n(C)c1 and write its reported GI50.
Out: 67.6 µM (inactive)

###

System: NCI-H460
measurement.notes: NCI tumour cell line growth inhibition, 48 h
Calls of active or inactive are those of the source. No stated cut-off is given here; in the data, active = GI50 up to about 1.1 µM and inactive = higher.
Entry note: the call must match one of active, inactive

| compound | class.name |
| --- | --- |
| O=c1[nH]c(=O)n(C2OC(COP(=O)(O)OP(=O)(O)O)C(O)C2O)cc1F (stereo not given) | active |
| CC[C@]1(Cc2ccc(OC)c(OC)c2)CN(S(=O)(=O)c2ccc(C)cc2)C[C@@H]1OC(C)=O | inactive |
| COc1c(-c2nc3ccc(N4CCN(C)CC4)nc3[nH]2)cc(OC)c2[nH]c(CO)nc12 | inactive |
| [O-][n+]1cc(SCc2ccccc2)ncc1SCc1ccccc1 | inactive |

In: Short answer needed: outcome of this test for NC1=NC(Cn2nc(-c3ccccc3)c3ccccc3c2=O)=NNC(=O)N1 ?
Out: inactive

In: Short answer needed: outcome of this test for C=C1CC(Cn2ccc(=O)[nH]c2=O)(c2ccc(OC)cc2)OC1=O (stereo not given) ?
Out: inactive

In: Short answer needed: outcome of this test for NS(=O)(=O)c1ccc(/N=N/c2ccc(O)c(O)c2)cc1 ?
Out: inactive

In: Short answer needed: outcome of this test for c1csc(C[N+]23CN4CN(CN(C4)C2)C3)c1 ?
Out: inactive

In: Short answer needed: outcome of this test for O=S(=O)(O)c1ccc2cccc(/N=N\c3c(O)ccc4ccccc34)c2c1 ?
Out: inactive

In: Short answer needed: outcome of this test for Nc1cc2[nH]c(=O)c3cc(Cl)ccc3c2cc1Cl ?
Out: inactive
